// values below are reported Max % inhibition
Target: human PCSK9 (Homo sapiens)
Sequence (Q8NBP7 153-692): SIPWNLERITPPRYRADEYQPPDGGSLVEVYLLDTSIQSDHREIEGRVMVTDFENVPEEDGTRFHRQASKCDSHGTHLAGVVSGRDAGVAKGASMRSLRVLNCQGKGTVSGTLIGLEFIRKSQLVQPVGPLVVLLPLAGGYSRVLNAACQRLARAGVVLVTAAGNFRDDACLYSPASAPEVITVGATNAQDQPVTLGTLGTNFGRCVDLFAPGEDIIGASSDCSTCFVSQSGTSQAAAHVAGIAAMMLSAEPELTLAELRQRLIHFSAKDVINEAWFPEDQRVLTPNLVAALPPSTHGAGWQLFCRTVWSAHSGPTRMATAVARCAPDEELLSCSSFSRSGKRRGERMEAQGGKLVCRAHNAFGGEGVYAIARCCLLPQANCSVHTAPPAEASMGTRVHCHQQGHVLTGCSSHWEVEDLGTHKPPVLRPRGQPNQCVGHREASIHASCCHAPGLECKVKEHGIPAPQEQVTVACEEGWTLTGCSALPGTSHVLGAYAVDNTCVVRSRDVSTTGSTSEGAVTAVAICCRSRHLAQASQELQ
Sequence (Q8NBP7 31-152 partner limits assumed): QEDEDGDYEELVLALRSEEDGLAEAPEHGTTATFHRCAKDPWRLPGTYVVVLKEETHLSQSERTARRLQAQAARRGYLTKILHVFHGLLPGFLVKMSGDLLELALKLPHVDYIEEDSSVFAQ
Assay: PCSK9 ligand binding assay (TR-FRET): interference with binding of human PCSK9 to human LDLR
Conditions: efficacy (Amax), 100% = 1 uM unlabeled human PCSK9, 0% = DMSO
The reply should be a number in %, with the unit left off.

Sample answers from the record:
C[C@H]1C(=O)N[C@@H](CO)C(=O)N[C@@]2(Cc3ccc(Cl)cc3)CCCN(C2)C(=O)[C@H]([C@@H]2CCc3ccccc32)CC(=O)N1Cc1ccc(Oc2ccc(-c3cnc(CN(C)C)n3C)cc2)cc1F [Compound 123]: 84.4
C[C@H]1C(=O)N[C@@H](CO)C(=O)N[C@@]2(Cc3ccc(Cl)cc3)CCCN(C2)C(=O)[C@H]([C@@H]2CCc3ccccc32)CC(=O)N1Cc1cc(F)ccc1Oc1ccc(-c2cnc(CN(C)C)n2C)cc1 [Compound 73]: 95.0
C[C@H]1C(=O)N[C@@H](CO)C(=O)N(C)[C@@]2(Cc3ccc(Cl)cc3)CCCN(C2)C(=O)[C@H](Cc2c(F)cc(F)cc2F)CC(=O)N1Cc1ccc(Cl)cc1Oc1ccc(-c2cnc(CN(C)C)n2C)cc1 [Compound 37]: 112.0
COC[C@@H]1NC(=O)[C@H](C)N(Cc2c(F)cc(Cl)cc2Oc2ccc(-c3cnc(CNC(C)(C)C)n3C)cc2)C(=O)C[C@@H](CC2CC2)C(=O)N2CCC[C@@](Cc3ccc(Cl)cc3)(C2)NC1=O [Compound 142]: 111.1
COC[C@@H]1NC(=O)[C@H](C)N(Cc2ccc(Cl)cc2Oc2ccc(-c3cnc(CN(C)C)n3C)cc2)C(=O)C[C@@H](Cc2ccccn2)C(=O)N2CCC[C@@](Cc3ccc(Cl)cc3)(C2)NC1=O [Compound 21]: 107.0
C[C@H]1C(=O)N[C@@H](CO)C(=O)N(C)[C@H](Cc2ccc(Cl)cc2)CN(C)C(=O)[C@H]([C@H]2CCc3ccccc32)CC(=O)N1Cc1ccc(Cl)cc1Oc1ccc(-c2cnc(CN(C)C)n2C)cc1.Cl [Compound 91]: 104.8

Kindly state the measured Max % inhibition obtained for COC[C@@H]1NC(=O)[C@H](C)N(Cc2ccc(Cl)cc2Oc2ccc(-c3cnc(CN4CCCC4)n3C)cc2)C(=O)C[C@@H](Cc2ccccc2)C(=O)N(CCCN(C)C)C[C@@H](Cc2ccc(Cl)cc2)N(C)C1=O.Cl [Compound 116] with human PCSK9 (Homo sapiens). 104.9

Kindly state the measured Max % inhibition obtained for COC[C@@H]1NC(=O)[C@H](C)N(Cc2ccc(Cl)cc2Oc2ccc(-c3cnc(CN(C)C)n3C)nc2)C(=O)C[C@@H](Cc2cccc(C)n2)C(=O)N2CCC[C@@](Cc3ccc(Cl)cc3)(C2)N(C)C1=O [Compound 24] with human PCSK9 (Homo sapiens). 115.7

Kindly state the measured Max % inhibition obtained for COC[C@@H]1NC(=O)[C@H](C)N(Cc2ccc(Cl)cc2Oc2ccc(-c3cnc(CN4CC[C@H](N(C)C)C4)n3C)cc2)C(=O)C[C@@H](Cc2ccccc2)C(=O)N2CCC[C@@](Cc3ccc(Cl)cc3)(C2)NC1=O.Cl [Compound 72] with human PCSK9 (Homo sapiens). 100.1

Kindly state the measured Max % inhibition obtained for COC[C@@H]1NC(=O)[C@H](C)N(Cc2c(F)cc(Cl)cc2Oc2ccc(-c3cnc(CN(C)C(C)(C)C)n3C)cc2)C(=O)C[C@@H](CC(F)(F)F)C(=O)N2CCC[C@@](Cc3ccc(Cl)cc3)(C2)N(C)C1=O [Compound 141] with human PCSK9 (Homo sapiens). 112.3
